The measurements presented in this section are drawn from patent US4104372A.

# System: Staphylococcus aureus FDA 209P
# ASSAY_SUMMARY: Minimum inhibitory concentration, agar dilution-streak method
# Assay type: cell-based
# CONDITION_SET: FDA209P, S. aureus FDA 209P, nutrient agar, 37° C, 18 hours
READOUT_NAME: MIC

NC[C@H]1O[C@H](O[C@H]2[C@H](O)[C@@H](O[C@H]3O[C@H](CO)[C@@H](O)[C@H](N)[C@H]3O)[C@H](N)C[C@@H]2N)[C@H](O)C[C@@H]1O
1.56 µg/mL
NCC[C@H](O)C(=O)N[C@@H]1C[C@H](N)[C@@H](O[C@H]2O[C@H](CN)[C@@H](O)[C@H](O)[C@H]2O)[C@H](O)[C@H]1O[C@H]1O[C@H](CO)[C@@H](O)[C@H](N)[C@H]1O [AHB-KMA, reference compound]
0.78 µg/mL
CNC[C@H]1O[C@H](O[C@H]2[C@H](O)[C@@H](O[C@H]3O[C@H](CO)[C@@H](O)[C@H](N)[C@H]3O)[C@H](NC(=O)[C@@H](O)CCN)C[C@@H]2N)[C@H](O)C[C@@H]1O
0.78 µg/mL
NCC(O)C(=O)N[C@@H]1C[C@H](N)[C@@H](O[C@H]2O[C@H](CN)[C@@H](O)C[C@H]2O)[C@H](O)[C@H]1O[C@H]1O[C@H](CO)[C@@H](O)[C@H](N)[C@H]1O (stereo partly drawn)
0.78 µg/mL
NCC[C@H](O)C(=O)N[C@@H]1C[C@H](N)[C@@H](O[C@H]2O[C@H](CN)[C@@H](O)C[C@H]2O)[C@H](O)[C@H]1O[C@H]1O[C@H](CO)[C@@H](O)[C@H](N)[C@H]1O
0.39 µg/mL

Could you now look at the following compound, please?
Form field MIC, entry `NCCC[C@H](O)C(=O)N[C@@H]1C[C@H](N)[C@@H](O[C@H]2O[C@H](CN)[C@@H](O)C[C@H]2O)[C@H](O)[C@H]1O[C@H]1O[C@H](CO)[C@@H](O)[C@H](N)[C@H]1O` : 0.78 µg/mL

----------
MIC overview
# System: Pseudomonas aeruginosa GN315
# ASSAY_SUMMARY: Minimum inhibitory concentration, agar dilution-streak method
# Assay type: cell-based
# CONDITION_SET: P. aeruginosa GN315, nutrient agar, 37° C, 18 hours
Write it as a number; the unit mg/L goes unstated.

Examples from the recorded data:
NCC[C@H](O)C(=O)N[C@@H]1C[C@H](N)[C@@H](O[C@H]2O[C@H](CN)[C@@H](O)C[C@H]2O)[C@H](O)[C@H]1O[C@H]1O[C@H](CO)[C@@H](O)[C@H](N)[C@H]1O
100
NCC[C@H](O)C(=O)N[C@@H]1C[C@H](N)[C@@H](O[C@H]2O[C@H](CN)[C@@H](O)[C@H](O)[C@H]2O)[C@H](O)[C@H]1O[C@H]1O[C@H](CO)[C@@H](O)[C@H](N)[C@H]1O [AHB-KMA, reference compound]
100

Could you now look at the following compound, please?
Simply: `CNC[C@H]1O[C@H](O[C@H]2[C@H](O)[C@@H](O[C@H]3O[C@H](CO)[C@@H](O)[C@H](N)[C@H]3O)[C@H](NC(=O)[C@@H](O)CCN)C[C@@H]2N)[C@H](O)C[C@@H]1O` , Pseudomonas aeruginosa GN315, MIC = 6.25

----------
MIC overview
# Test system: Pseudomonas aeruginosa GN315
# ASSAY_SUMMARY: Minimum inhibitory concentration, agar dilution-streak method
# Type: cell-based
# CONDITION_SET: P. aeruginosa GN315, nutrient agar, 37° C, 18 hours

Examples from the recorded data:
NCC(O)C(=O)N[C@@H]1C[C@H](N)[C@@H](O[C@H]2O[C@H](CN)[C@@H](O)C[C@H]2O)[C@H](O)[C@H]1O[C@H]1O[C@H](CO)[C@@H](O)[C@H](N)[C@H]1O (stereo partly drawn)
> 100 µg/mL
NCCC[C@H](O)C(=O)N[C@@H]1C[C@H](N)[C@@H](O[C@H]2O[C@H](CN)[C@@H](O)C[C@H]2O)[C@H](O)[C@H]1O[C@H]1O[C@H](CO)[C@@H](O)[C@H](N)[C@H]1O
> 100 µg/mL

Form field MIC, entry `NC[C@H]1O[C@H](O[C@H]2[C@H](O)[C@@H](O[C@H]3O[C@H](CO)[C@@H](O)[C@H](N)[C@H]3O)[C@H](N)C[C@@H]2N)[C@H](O)C[C@@H]1O` : > 100 µg/mL
